# Measurement Target: T1, his-tagged murine TIGIT (Acro Biosystems #TIT-M52E6) (murine, UniProt P86176 29-148, limits assumed)
# T1 construct: Bought protein; also called mouse his-tagged TIGIT; not shown: his tag
# T1 sequence (looked up): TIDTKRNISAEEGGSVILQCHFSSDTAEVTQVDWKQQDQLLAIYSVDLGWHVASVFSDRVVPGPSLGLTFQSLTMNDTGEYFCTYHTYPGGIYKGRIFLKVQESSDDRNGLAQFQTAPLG
# Procedure Details: ELISA, coated His-TIGIT, 1 ug/ml
Test Readout: Elisa OD450 (OD450)
# output: bare number, implied unit OD450

Item under review: 43645p1.F11 (scFv, V domains shown) VH: EVQLLESGGGLVQPGGSLRLSCAASGFTFSSYWMSWVRQAPGKGLEWVSGIHISDSTYYADSVKGRFTISRDNSKNTLYLQMNSLRAEDTAVYYCAKGHTVLQYGMDVWGQGTTVTVSS VL: QSGLTQPPSASGTPGQRVTISCSGDISNTRNNYVSWYQQLPGTAPKLLIYRNSQRPSGVPDRFSGSKSATSASLAISGLQSEDEADYYCGTWDNTLNAWVFGGGTKLTVL . Reported Elisa OD450?
1.85

Check 43586p2.H02 (scFv, V domains shown) VH: EVQLLESGGGLVQPGGSLRLSCATSGFTVSDHYVSWVRQAPGKGLEWVSTSSSTNWNDGRTYYADSVKGRFTISRDNSENTLYLQMNSLRAEDTAVYYCAKGSYGMDVWGQGTTVTVSS VL: QSVLTQPPSASGTPGQRVTISCSASNSYIGTKYFYWYQQLPGTAPKLLIYLDSQRPSGVPDRFSGSKSGTSVSLAISGLQSEDEADYYCAFWDDHLHGWVFGGGTKLTVL too.
1.93

Entry to check: 43586p1.2.C9 (scFv, V domains shown) VH: EVQLLESGGGLVQPGGSLRLSCAASGFTFDDYVMSWVRQAPGKGLEWVSLINWNGDKTYYADSVKGRFTISRDNSKNTLYLQMNSLRAEDTAIYYCAKHWIVFQYGMDVWGQGTTVTVSS VL: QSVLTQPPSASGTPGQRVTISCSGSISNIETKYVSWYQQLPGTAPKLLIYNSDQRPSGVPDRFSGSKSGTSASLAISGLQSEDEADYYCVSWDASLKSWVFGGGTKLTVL
0.046

Note, next up: 43645p1.D3 (scFv, V domains shown) VH: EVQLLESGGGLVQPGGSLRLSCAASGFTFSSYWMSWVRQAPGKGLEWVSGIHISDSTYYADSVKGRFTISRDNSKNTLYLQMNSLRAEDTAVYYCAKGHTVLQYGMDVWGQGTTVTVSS VL: QSGLTQPPSASGTPGQRVTISCSGDISNTRNNYVSWYQQLPGTAPKLLIYGNHQRPSGVPDRFSGSKSATSASLAISGLQSEDEADYYCGTWDNTLNAWVFGGGTKLTVL
1.9

Would you kindly repeat that for 43586p1.2.G4 (scFv, V domains shown) VH: EVQLLESGGGLVQPGGSLRLSCAASGFTFDDYVMSWVRQAPGKGLEWVSLINWNGDKTYYADSVKGRFTISRDNSKNTLYLQMNSLRAEDTAVYYCARHWIVFQYGLDVWGQGTTVTVSS VL: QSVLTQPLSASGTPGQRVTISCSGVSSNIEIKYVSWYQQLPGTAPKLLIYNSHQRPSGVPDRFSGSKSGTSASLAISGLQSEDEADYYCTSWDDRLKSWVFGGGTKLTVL ?
2.04

Data origin, for the record: patent US20230265187A1
